test: yeast display, Sf9 membrane polyspecificity reagent, FACS + sequencing; frameworks hold sequencing errors
VALUE_TYPE: polyreactivity (PSR sort gate)

Solved entries (count: 4):
QVQLVESGGGLVQAGGTLRISCAASGSTAYVMGWYRQAPGKEMELVAAISKSGGSTYYADSVKGRFTISRDNAKNTVYLQMNSLKPEDTAVYYCAALYPTTTAYRYGYWGQGTQVTVSS: high polyreactivity
QVQLVESGGGLVQAGGSLRLSCAASGRTFPPYAMGWYRQGPGKERELVASIRRGGSTHYADSVKRRFTISRDNAKNTVYLQMNSLQPEDTAVYYCAAYYGGWSTYGAGYGGFYYWGQGTQVTVSS: high polyreactivity
QVQLVESGGGLVQAGGSPRLSCAASGRTFRSNAMGWYRQAPGKERELVAAISWSGGSTYYADSVKGRFTISRDNAKNTVYLQLNSLKPEDTAVYYCAAGSYWSPYGQSFWPKYDYWGQGSQVTVSS: high polyreactivity
QVQLVESGGGLVQAGGSLRLSCGASGGIFYLYAMGWSRQAPGKERELVAAITWSADSTYYADSVKGRFTISRDNAKNTVYLQMNSLKPEDTAVYYCNADVAWQYGKGWSWDIDDYWRQGTQVTVSS: low polyreactivity

The record that follows has no polyreactivity (PSR sort gate) shown yet.
## Input Which polyreactivity (PSR sort gate) is listed for `QVQLVESGGGLFQAGGSLRFSCAASGIIFSTNAMGWYRQAPGKERELVATITSSSGRTYYADSVKGRFTISRDNAKNTLYLQMNSLKPEDTAVYYCATGGVLIKGHYYWGQGTQVTVSS` ?
## Output low polyreactivity

###

assay: yeast display, Sf9 membrane polyspecificity reagent, FACS + sequencing; frameworks hold sequencing errors
VALUE_TYPE: polyreactivity (PSR sort gate)

QVQLVESGGGLVQAGGSLRLSCAASGSTFYPYAMGWYRQAPGKERELVAAISSGGSTSYADSVKGRFTISRDNAKNTVYLQMNSLKPEDTAVYYCNASSPGAVPVYYYDYWGQGTQVTVSS: low polyreactivity
QVQLVESGGGLVQAGGSLRLSCAASGRTSWYTMGWYRQAPGKERELVAAISGSGGITYYADSVKGRFTISRDNAKNTVYLQMNSLKPEDTAVYYCNALRPRSLTEMYYWGQGTQVTVSP: high polyreactivity
QVQLVESGGGLVQAGGSLRLSCAASGITFLGYVMGWYRQAPGKEREFVADITESGGRTYYADSVKGRFTISRDNAKNTVYLQMNSLKPEDTAVYYCAAELSYWGYYYSFDYWGQGTQVTVSS: low polyreactivity
QVQLVESGGGLVQAGGSLRLSCAASGSTFSYYALGWYRQAPGKEREFVAAISRSGGRTYYADSVKGRFTFSRDNAKNTVYLQMNSLKPEDTAVYYCATVYYYDFSRTHPWPGDYWGQGTQVTVSS: high polyreactivity

// switching to the query sequence
## Input Fill in the blank: the reported polyreactivity (PSR sort gate) of `QDQLVESGGGLVQAGGNLRLSCAASGSIFSDYTIGWYRQAPGKERELVADITLSSGSTYYADSVKGRFTISRDNAKNTVYLQMNSLKPEDTAVYYCAADGWYYFRSGDFEYDYWGHGTQVTVSS` is ____.
## Output low polyreactivity

###

experiment: yeast display, Sf9 membrane polyspecificity reagent, FACS + sequencing; frameworks hold sequencing errors
VALUE_TYPE: polyreactivity (PSR sort gate)

QVQLVESGGGLVQAGGSLRLSCAASGRIFATNARGWYRQAPGKERELVAVISSGGSTNYADSVKGRFTISRDNAKNTVYLQMNSLKPEDTAVYYCAASPGSRPTQPYDYWGQGTQVTVSS: low polyreactivity
QVQLEESGGALVQAGGSLRLSCAASGFIFTLYAMGWYRQAPGKEREFVAAISWSDGSTTYADSVKGRFTISRDNAKNTVYLQMNSLNPEDTAVYYCAAVTSSYIRGLVYHFYYWGQGTQVTVSS: low polyreactivity
KVQLVQSGGGLVQAGGILRLSCAASGRIFSSYAMGWYSQAPGKERELVAVISQRGGSTSYADSVKGRFTISRDNAKNTVYLQMNSLKPEDTAVYYCARRPGKGNNYWGQGTQVTVSS: high polyreactivity
QVQLVESGGGLVQAGGSLRLSCAASGITFTYYAMGWYRQAPGKVRELVAGISSGTRTYYADSVKGRFTISRDNAKNTVYLQMNSLKPEDTAVYYCAARTGSRYSRGDYWGHGTQVTVSS: high polyreactivity
QVQLVESGGGLVQAGGSLRLSCAASGNTFAGNAMGWYRQAPGKERELVAAISRSGVTTRYADSVKGRFTISRDNAKNTVYLQMNSLKPEDTAVYYCNADPRLRQTRDYWGQGTQVTVSS: high polyreactivity

## Input Find the recorded polyreactivity (PSR sort gate) belonging to `QVQLVESGGGLVQAGGSLRLSCAASGRIFTHNAMGWYRQAPGKERELVAAISYSGVSTYYADSVKGRFTISRDNAKNTVYLQMNSLKPEDTAVYYCARDRWKWHYGYDYWGQGTQVTVSS` and report it.
## Output low polyreactivity

## Input Recorded polyreactivity (PSR sort gate) for `QVHLVESGGGLVQAGGSLRLSCAASGSIFRYNVKAWYRQAPGNERQFVAANTARGGSTYYPESVKVRFTISRDYAKNTVYRQMISMKPEDTAVYYCATVSQQSRSLGIDRIYYWGQGTQVTVSS` , please?
## Output high polyreactivity

###

experiment: yeast display, Sf9 membrane polyspecificity reagent, FACS + sequencing; frameworks hold sequencing errors
VALUE_TYPE: polyreactivity (PSR sort gate)

Sample records with polyreactivity (PSR sort gate):
QVQLVESGGGLVQAGGSLRLSCAASGNIFYYNAMGWYRQAPGKVRELVAAITRSAGSTYYADSVKGRFPISRDNAKNTVYLQMNSLKPEDTAVYYCAATYSDLGYRYYSLGQGTQVTVSS: high polyreactivity
QVQLVESGGGLVQAGGSLRLSCAASGRIFIPYVMGWYRQAPGKERELVAVITESGGSTYYADSVKGRFTISRDNAKNTVYLQMNSLKPEDTAVYYCATRYGRGARTYHYYYWGQGTQVTVSS: high polyreactivity
QVQLVESGGGLVQAGGRLRLSCAASGFTFKKNAMGWYRQAPGKERELVAAIRSGTSTKYADSVKGRFTISRDNAKNTVYLQMNSLKPEDTAVYYCAAEEPEYLATWRNRRYDYWGQGTQVTVSS: low polyreactivity
QVQLVESGGGLVQAGGSLRLSCAASGLTIFVYAMGWSRQAPGKERELVAAISDSGGSTYYADSVKGRFTISRDNAKNTVYLQMNSLKPEDTAVYYCAADYRGIYSGIWGDYWGQGTQVTVSS: low polyreactivity

## Input Quick one: polyreactivity (PSR sort gate) of `QVQLVESGGGLVQAGGSLRLSCAASGFTFIYYAMGWSRQAPGKERELVAAIRWSGGSTYYADSVKGRFTISRDNAKNTVYLQMNSLNPEDTAVYYCAKGGPHRGTGLNDYWGQGTQVTVSS` ?
## Output high polyreactivity

###

assay: yeast display, Sf9 membrane polyspecificity reagent, FACS + sequencing; frameworks hold sequencing errors
VALUE_TYPE: polyreactivity (PSR sort gate)

Here is how some sequences turned out for polyreactivity (PSR sort gate).
QVQLVESGGGLVQAGGSLRLSCAASGIIFYKYAMGWYRQAPGKERELVAAISYSGTSTYYADSVKGRFTISRDNAKNTVYLQINSLKPEDTAVYYCAAVTYVPRSTNGISLYDYWGQGTQVTVSS: high polyreactivity
QVQLVESGGGLVQAGGSLRLSCAASGRIFGVYAMGWYRQAPGKERELVAAIYSGSTTYYADSVKGRFTISRDNAKNTVYVQMNSLKPEDTAVYYCAAVSRDDNYQDYYSWGQGTQVTGSS: low polyreactivity
QVQHVESGGGLVQAGGSLRLSCAASGITFSYYAMGWYIQAPGKEREFVAAISWSGGSTYYADSVKGRFTISRDNAKNTVYLQMNSLKPEVTAVYYCAADRYPYGLDYWGQGTQVTVSS: high polyreactivity
QVQLVESGGGLVQAGGSLRLSCAASGSTFVPYAMGWYRQAPGKERELVAAISQSGGSTYYADSVKGRYTISRDNAKNTVYLQMTSLKPEYTAVYYCNVDQFRYPEYDYWGQGTQVTVSS: high polyreactivity
QVQLVESGGGLVQAGGSLRLSCAASGLNFYRNAMGWSRQAPGKERELVAAISASGGRTYYADSVKGRFTISRDNAKNTVYLPMNSLKPEDTAVYYCAAKSLWLSMDYWGQGTQVTVSS: high polyreactivity

## Input I would be grateful if you could share the reported polyreactivity (PSR sort gate) for `QVQLVESGGGLVQAGGSLRLSCAASGSTFAGYVMGWYRQAPGKERELVASKSWSGGSTYYADSVKGRFTISRDNAKNTVNLQMNSLKPEETAVYYSNTRRYERTDSAYPDHDYPGYYWGQATQVTVSS` .
## Output low polyreactivity

## Input So what's the measured polyreactivity (PSR sort gate) for this one? `QDQLVESGGGLVQAGGSLRLSCAASGIILRYYVMGWYRQAPGKERELVAAITSRGGSTYYADSVKGRFTISRDNAKNTVYLQMNSLKPEDTAVYYCAAGYRNVNTFDYWGQGTQVTVSS`
## Output high polyreactivity
